Source listed as patent US20230012273A1.

koff reference
target of assay: T1, cynoSIRPα (NP_001271679), Extracellular Domain + His-Tag (cynomolgus monkey)
T1 construct: also called CySIRPα NP_001271679; not shown: His-Tag
T1 chain: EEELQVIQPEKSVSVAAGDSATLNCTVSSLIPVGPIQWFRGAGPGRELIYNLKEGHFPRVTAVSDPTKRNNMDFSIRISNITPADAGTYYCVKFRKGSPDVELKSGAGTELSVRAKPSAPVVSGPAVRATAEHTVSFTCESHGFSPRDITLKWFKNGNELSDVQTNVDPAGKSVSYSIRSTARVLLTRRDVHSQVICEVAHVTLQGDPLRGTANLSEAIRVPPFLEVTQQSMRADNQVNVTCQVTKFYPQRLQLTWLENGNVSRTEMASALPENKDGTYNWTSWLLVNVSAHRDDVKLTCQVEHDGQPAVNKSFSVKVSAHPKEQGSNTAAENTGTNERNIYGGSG
test summary: SPR, antibody captured on Protein A/G, ECD-His analyte, 1:1 fit
Field: numeric (s⁻¹). Do not append units.

Recorded koff, per entry:
{"columns": ["binder", "value units", "koff"],
 "data": [
  ["Antibody E10 (antibody, human IgG1, kappa, L234A L235A, V domains shown) VH: QVQLQESGPGLVRPSETLSLTCTVSGGSIRNYYWSWIRQPPGKGLEWIGFIYYNGRTFYNPSLKSRVTISLDTSKNQFSLKMTSVTAADTAVYYCARVRAYSGIGLDGTDVWGQGTTVTVSS VL: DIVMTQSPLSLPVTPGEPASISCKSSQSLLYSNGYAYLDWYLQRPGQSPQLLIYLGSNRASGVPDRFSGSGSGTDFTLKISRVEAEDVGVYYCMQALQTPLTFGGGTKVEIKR", "s⁻¹", 0.00545],
  ["Antibody E14 (antibody, human IgG1, kappa, L234A L235A, V domains shown) VH: QVQLQESGPGLVRPSETLSLTCTVSGGSIRNYYWSWIRQPPGKGLEWIGFIYYNGRTFYNPSLKSRVTISLDKSKNQFSLKMTSVTAADTAVYYCARVRAYSGIGLDGTDVWGQGTTVTVSS VL: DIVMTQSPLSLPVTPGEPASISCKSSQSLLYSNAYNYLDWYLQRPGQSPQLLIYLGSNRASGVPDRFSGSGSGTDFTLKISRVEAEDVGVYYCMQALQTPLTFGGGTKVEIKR", "s⁻¹", 0.0173]
]}

Q) For the binder Antibody E21 (antibody, human IgG1, kappa, L234A L235A, V domains shown) VH: QVQLQESGPGLVRPSETLSLTCTVSGGSIRNYYWSWIRQPPGKGLEWIGFIYYTGRTFYNPSLKSRVTISLDMSKNQFSLKMTSVTAADTAVYYCARVRAYSGIGLDGTDVWGQGTTVTVSS VL: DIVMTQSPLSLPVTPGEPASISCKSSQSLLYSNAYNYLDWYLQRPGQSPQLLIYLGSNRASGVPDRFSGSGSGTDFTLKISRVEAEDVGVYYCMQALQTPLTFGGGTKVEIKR , give its reported koff.
A) 0.0242
